Compiled record: IC50 values for Serine/threonine-protein kinase mTOR (Homo sapiens, UniProt P42345) across several sources.

Please review the following examples before continuing.
- compound: "Cc1cc(-n2c(=O)n(C)c3cnc4ccc(-c5cncc(N6CCOCC6)c5)cc4c32)n(C)n1"
  observed: "155 nM"
- compound: "CCC(C)n1cnc2c(-c3cccc(O)c3)nc(N3CCOCC3)nc21 (stereo not shown)"
  observed: "< 1000 nM"
- compound: "CC(C)Cn1c(N2C[C@H](C)NC[C@H]2C)nc2c(N3CCOCC3)nc(-c3cnc(N)nc3)nc21 (relative stereo)"
  observed: "30 to 100 nM"

Pending compound:
*Q* Field request: IC50 | item: COc1cc(-c2cccc(NS(=O)(=O)c3cc(F)ccc3F)c2F)cc2c(N3CCOCC3)nc(-c3cnc(N)nc3)nc12
*A* 100 to 1000 nM

----------
pIC50 for Serine/threonine-protein kinase mTOR (Homo sapiens) - collated from the literature.
pIC50: −log10 of the molar value.

Please review the entries below; each comes with its answer.
- compound: "Cc1nn(C)c(C)c1-n1c(=O)n(C)c2cnc3ccc(-c4cnc(Cl)c(N)c4)cc3c21"
  pIC50: 6.72
- compound: "Cc1nc(N)ncc1-c1nc(N2CCOCC2)c2nc(N3CCC(N(C)S(C)(=O)=O)C3)n(CC3CC3)c2n1 (stereo not drawn)"
  pIC50: "6.30 to 7.00"
- compound: "Cc1nc2[nH]c(=O)n(C[C@H]3COCCO3)c2cc1-c1cnc2[nH]ccc2c1C"
  pIC50: "> 7.30"
- compound: "O=S(=O)(Nc1cc(-c2ccc3ncc(N4CCNCC4)nc3c2)cnc1Cl)c1ccc(F)cc1"
  pIC50: 8.22
- compound: "CN1CCN(C(=O)c2ccc(NC(=O)Nc3ccc(-c4nc(N5CCOCC5)c5ccc(-c6cccnc6)cc5n4)cc3)cc2)CC1"
  pIC50: "> 7.30"
- compound: "C[C@H](O)C(=O)N1CCC(n2nnc3cnc4ccc(-c5cnc(N)c(C(F)(F)F)c5)nc4c32)CC1"
  pIC50: "> 7.00"
- compound: "OCc1cccc(-c2nc(N3CCOCC3)nc3c2ncn3Cc2ccccc2)c1"
  pIC50: "5.30 to 6.00"
- compound: "CN(C)C(=O)c1ccc(NC(=O)Nc2ccc(-c3nc(N4CCOCC4)c4ccc(-c5cc6ccccc6o5)cc4n3)cc2)cc1"
  pIC50: "5.00 to 6.70"
- compound: "CC(C)(O)C(=O)Nc1cccc(-c2ccc3c(N4CCOCC4)nc(-c4cnc(N)nc4)nc3c2)c1"
  pIC50: "6.70 to 7.30"
- compound: "COc1cc(-c2cccc(NS(=O)(=O)CCCF)c2F)cc2c(N3CCOC[C@H]3C)nc(-c3cnc(N)cc3C#N)nc12"
  pIC50: "6.00 to 7.00"

*Q* What measured pIC50 goes with CCNC(=O)Nc1ccc(-c2nc(N3CCOCC3)nc3c2cnn3CC(C)(C)O)cc1 ?
*A* > 6.96

*Q* Any idea what pIC50 was measured for Cc1nn(C)c(C)c1-n1c(=O)n(C)c2cnc3ccc(-c4cnc(N)nc4)cc3c21 ?
*A* 6.49

*Q* Name the recorded pIC50 for C[C@H]1COCCN1c1nc(-c2ccc(NC(=O)NC3CC3)cc2)nc2c1CS(=O)(=O)C(C)(C)C2 .
*A* > 7.00

*Q* Consider the compound shown here: O=c1[nH]c2ncc(-c3cnc4[nH]ccc4c3)cc2n1C[C@@H]1COC[C@@H]1O (racemic) What is its recorded pIC50?
*A* > 7.30

*Q* Suppose we examine the compound C[C@H]1COCCN1c1nc(-c2ccc(NC(=O)NCC(F)F)cc2)nc2c1CS(=O)(=O)C2 ; what pIC50 value has been reported?
*A* > 7.00

*Q* Any idea what pIC50 was measured for Cc1nn(C)cc1-n1c(=O)n(C)c2cnc3ccc(-c4ccc(-n5cccn5)cc4)cc3c21 ?
*A* 7.96

*Q* Look up pIC50: COC(=O)c1ccc(Cn2cnc3c(-c4cccc(O)c4)nc(N4CCOCC4)nc32)cc1
*A* 5.30 to 6.00

*Q* # get_value(readout='pIC50', item= CNc1ncc(-c2nc(N3CCOCC3)c3nc(N4CCN(C(C)=O)CC4)n(CC(F)(F)F)c3n2)cn1 )
*A* > 8.00

*Q* # lookup: pIC50 of C[C@H]1COCCN1c1nc(-c2ccc(NC(=O)NCCO)cc2)nc2c1CS(=O)(=O)C2
*A* > 7.00

*Q* # input compound: CN1CCN(c2ccc(-c3ccc4ncc5ccc(=O)n(-c6cccc(C(F)(F)F)c6)c5c4n3)cn2)CC1 ; wanted: its pIC50
*A* 8.64

*Q* Dear colleague, I am looking for the recorded pIC50 of the following compound: CC(C)(C)C(=O)Nc1cccc(-c2cnc3c(N4CCOCC4)nc(-c4cnc(N)nc4)nc3c2)c1
*A* > 7.30

*Q* Would you mind telling me what pIC50 value was observed for CN(C)CCNC(=O)c1cccc(-c2cnc3c(N4CCOCC4)nc(-c4cnc(N)nc4)nc3c2)c1 ?
*A* 6.70 to 7.30

*Q* Return reported pIC50; argument: Nc1ccc(-c2nc(N3CCOCC3)c3cc(-c4cccc(NS(=O)(=O)CCCF)c4F)cc(N4CCCC4)c3n2)cn1
*A* 6.00 to 7.00

*Q* Look up pIC50 for this compound: O=c1[nH]c2ncc(-c3cc4cc[nH]c4nn3)cc2n1CC1CCOCC1
*A* > 7.30

*Q* Give its pIC50 value. Item: CN(C)C(=O)c1ccc(NC(=O)Nc2ccc(-c3nc(N4CCOCC4)c4ccc(-c5cnc6ccccc6c5)cc4n3)cc2)cc1
*A* > 7.30

*Q* Field request: pIC50 | item: Cc1c[nH]c2ncc(-c3cnc4[nH]c(=O)n(C[C@H]5COCCO5)c4c3)c(C)c12
*A* > 7.30

*Q* Fill in: pIC50 of Cn1cc(-c2cc(-c3cnc4[nH]ncc4c3)ccn2)n(-c2ccc(N3CCNCC3)c(C(F)(F)F)c2)c1=O is ___
*A* 5.00 to 7.00

*Q* May I ask what pIC50 has been recorded for CN1CCN(C(=O)N2CCC(n3ncc4c(-c5cnc(N)nc5)nc(N5CCOCC5)nc43)CC2)CC1 ?
*A* > 6.00

*Q* Name the reported pIC50 value associated with the compound Cc1cc(C(C)Nc2ccccc2C(=O)O)c2oc(N3Cc4ccccc4C3)cc(=O)c2c1 (single isomer, unassigned)
*A* 5.11

*Q* Please look up its pIC50: CC1c2c(nc(-c3ccc(NC(=O)NCC4CC4)cc3)nc2N2CCOC[C@@H]2C)CS1(=O)=O (stereo partly drawn)
*A* > 7.00

----------
Header: pIC50 / Serine/threonine-protein kinase mTOR (Homo sapiens, UniProt P42345) / multiple publications
pIC50: −log10 of the molar value.

- molecule: "CO[C@H]1CCO[C@@H](Cn2c(=O)[nH]c3ncc(-c4cnc5[nH]cc(Cl)c5c4C)cc32)C1"
  pIC50: "> 7.30"
- molecule: "CC(C)(Cc1cccc(F)c1)Nc1nc(N2CCOCC2)nc(-n2c(C(F)F)nc3ccccc32)n1"
  pIC50: "< 6.30"
- molecule: "C[C@H]1COCCN1c1nc(-c2ccc(NC(=O)NC3CC3)cc2)nc2c1CS(=O)(=O)C2(C)F (stereo partly drawn)"
  pIC50: "> 7.00"
- molecule: "O=C1CCNc2c1c(C1C[C@H]3COC[C@@H](C1)N3C(=O)c1nc[nH]n1)nc1c(-c3ccc(-c4ccccc4)nc3)cnn21 (stereo partly drawn)"
  pIC50: "> 8.00"
- molecule: "CS(=O)(=O)N1CCC(Cn2c(=O)[nH]c3ncc(-c4ccc5[nH]ccc5c4)cc32)CC1"
  pIC50: "> 7.30"
- molecule: "O=c1[nH]c2ncc(-c3cc4cc[nH]c4nc3Cl)cc2n1C[C@H]1COCCO1"
  pIC50: "> 7.30"
- molecule: "CO[C@@H]1CCO[C@H](Cn2c(=O)[nH]c3ncc(-c4cnc5[nH]ccc5c4C)cc32)C1"
  pIC50: "> 7.30"
- molecule: "C[C@H]1COCCN1c1nc(-c2ccc(NC(=O)NC3CC3)cc2)nc2c1CS(=O)(=O)C2(C)C"
  pIC50: "> 7.00"

*Q* Lab request: please report pIC50 under test system Serine/threonine-protein kinase mTOR (Homo sapiens, UniProt P42345) for CN(C)C(=O)c1ccc(NC(=O)Nc2ccc(-c3nc(N4CCOCC4)c4ccc(-c5cccc(CO)c5)cc4n3)cc2)cc1
*A* > 7.30

*Q* What measured pIC50 is associated with Cc1nn(C)cc1-n1c(=O)n(C)c2cnc3ccc(-c4cncc(OCCF)c4)cc3c21 on Serine/threonine-protein kinase mTOR (Homo sapiens, UniProt P42345)?
*A* 8.00

*Q* Recorded pIC50 for CC(C)C(=O)N1CCC(n2nnc3cnc4ccc(-c5cnc(N)c(C(F)(F)F)c5)nc4c32)CC1 with Serine/threonine-protein kinase mTOR (Homo sapiens, UniProt P42345), please?
*A* > 7.00
